test: NCI Yeast Anticancer Drug Screen. Data for the rad50 strain (AID 155);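 note: 0% = growth of vehicle-only cultures of the same strain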; conditions: S. cerevisiae rad50 strain growth inhibition; at 5.0 µM (retest, dose inferred, filed as 0.5); active compounds read high
This is part of a sample that, as a whole, favours compounds with a hit. Of some 79,000 tested, about 15% had one in any assay.
assay_metric: growth inhibition (%)

> print(dat)
                     structure.smiles.string  test.result
 1                 Cn1c(=O)c2ccccc2c2ccccc21         -132
 2        CC(=O)ON1C(=O)c2cccc3cccc(c23)C1=O           51
 3                        OC1CSCCCSCCSCCCSC1          -11
 4         OC(c1ccc(F)cc1)(c1ccc(F)cc1)C1CC1           59
 5  CN(C)CCn1c2c3ccccc3ccc2c2oc(=O)c3ccccc3c21           52
 6              C=C(CN(C)C)C(=O)c1cc(C)ccc1C           24
 7         O=[N+]([O-])c1cccc2nccc(NCCCO)c12           32
 8  Cc1ccc(Nc2nc3c(=O)n(C)c(=O)n(C)c3nc2Nc2ccc(C)cc2)cc1          -13
 9          S=C(N/N=C/c1ccccn1)Nc1ccc(Cl)cc1           -7
10              N#CN=Nc1cc(Cl)c(N=NC#N)cc1Cl          -22
11                       CSC(=S)Nc1cccc(C)n1           88
12  COc1ccccc1/C=C1\Sc2scc(-c3cccc([N+](=O)[O-])c3)[n+]2C1=O           12
13         CCCCCCCCCCCC1=C(O)C(=O)C=C(O)C1=O           32

###

assay: NCI Yeast Anticancer Drug Screen. Data for the wt1 strain (AID 149);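 note: 0% = growth of vehicle-treated wt1 cultures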; details: S. cerevisiae wt1 strain (SPY 50644) growth inhibition; at 33.0 µM
This is part of a sample that, as a whole, favours compounds with a hit. Of some 79,000 tested, about 15% had one in any assay. Calls of active or inactive are those of the source. No stated cut-off is given here; in the data, active means growth inhibition above about 70%; inactive means the rest.
Outcome codes: yes (1) (active), no (0) (inactive)

> print(dat)
                                   molecule  classification
1  CC(=O)OCC(=O)C1(O)CCC2C3CCC4CCCCC4(C)C3CCC21C (stereo not given)          no (0)
2  O=C1C=CC(=Nc2ccc3c(c2)Cc2cc(NC(=O)C(F)(F)F)ccc2-3)O1          no (0)
3  CCNc1nnc(CSc2nc(-c3ccccc3)c(-c3ccccc3)[nH]2)s1         yes (1)
4  COc1cc(C2SCC(=O)N2c2nnc(C(F)(F)F)s2)cc(OC)c1OC (stereo not given)          no (0)
5   Cc1ccc(S(=O)(=O)Oc2cc(Cl)c(Cl)cc2Cl)cc1          no (0)

###

Entries and their growth inhibition
experiment: NCI Yeast Anticancer Drug Screen. Data for the cln2 rad14 strain (AID 165);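 note: 0% = growth equal to vehicle treated cultures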; conditions: S. cerevisiae cln2 rad14 strain, at 50.0 µM, active compounds read high
About 79,000 compounds went through this panel and 15% of them were active in at least one assay; those are over-represented in the sample as a whole. The source made the active and inactive calls. Cut-off read from the data, not from the text of the source: active = growth inhibition above about 70%; inactive = the rest.
assay_metric: growth inhibition

molecule	test_result
[O-][n+]1c2ccc(O)cc2nc2ccc(Cl)cc21	43.1% (inactive)
O=CNc1ccc2c(c1)C(=O)c1ccccc1-2	26.8% (inactive)
COc1cc(C(=O)/C=C/c2ccccc2O)ccc1O	92.8% (active)
CN1c2ccc(Cl)cc2C(=O)NC1c1ccc([N+](=O)[O-])s1 (stereo unspecified)	91% (active)
COC(=O)C1=C(C(=O)OC)C2(C)C=CC1O2 (stereo unspecified)	19.1% (inactive)
CC(C)=CC(=O)O[C@@H]1CC(C)(C)CC2C3=CCC4[C@]56CC[C@](O)(OC5)C(C)(C)C6CC[C@@]4(C)C3(C)CC[C@]21C(=O)O (stereo partly specified)	79.3% (active)
CN(CCc1ccccn1)c1ccc2c(c1)Cc1ccccc1-2	-2.25% (inactive)
CC(=O)Nc1ccc2c(c1)C(=Nc1ccc(C(=O)O)cc1)c1ccccc1-2	43.9% (inactive)
Oc1ccc2ccccc2c1C(c1ccc(Cl)cc1)c1c(O)ccc2ccccc12	76.8% (active)
Nc1ncncc1C(C1=C(O)COC1=O)C1=C(O)COC1=O	35.1% (inactive)
CC(C)(C)c1nc2c(o1)C(=O)c1ccccc1C2=O	92.1% (active)

###

experiment: NCI Yeast Anticancer Drug Screen. Data for the wt1 strain (AID 149);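 note: 0% = growth of vehicle-treated wt1 cultures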; conditions: S. cerevisiae wt1 strain (SPY 50644) growth inhibition; at 3.7 µM; active compounds read high
This is part of a sample that, as a whole, favours compounds with a hit. Of some 79,000 tested, about 15% had one in any assay. Active and inactive are the calls of the source. Rule as the data show it: active = growth inhibition above about 70%; inactive = the rest.
# Lookup of reported growth inhibition keyed by entry
assay_metric: growth inhibition

> print(dat)
                                    molecule      test.result
 1            O=C1c2ccccc2-c2n[nH]c3cccc1c23  -28% (inactive)
 2      BrCC[P+](c1ccccc1)(c1ccccc1)c1ccccc1  -56% (inactive)
 3  COc1ccccc1C(=O)OCC1CCCN2CCCCC12 (stereo unspecified)   -7% (inactive)
 4  CC(O)C(O)C(O)C(/C=N\Nc1ccccc1)=N/Nc1ccccc1 (stereo unspecified)    9% (inactive)
 5  Nc1nc(-c2cccnc2)cc(-c2cc(-c3cccnc3)nc(N)n2)n1   -1% (inactive)
 6  OCC1OC(OCC(O)C(O)C(O)C(/C=N/Nc2ccccc2)=N/Nc2ccccc2)C(O)C(O)C1O (stereo unspecified)   17% (inactive)
 7          COCCOC(=O)CCn1cc(F)c(=O)[nH]c1=O    3% (inactive)
 8  CCOC(=O)c1cnc2c(C(F)(F)F)cccc2c1N=[N+]=[N-]    1% (inactive)
 9                     CCC(=O)c1cccc2ccccc12    1% (inactive)
10  O=C1c2ccccc2C(=O)c2c(NC3CCCCC3)ccc(Nc3ccc(S(=O)(=O)O)cc3)c21   -5% (inactive)
11  Cn1c(N)nc(-c2ccc(Cl)cc2)c1SSc1c(-c2ccc(Cl)cc2)nc(N)n1C    4% (inactive)

###

assay: NCI Yeast Anticancer Drug Screen. Data for the rad50 strain (AID 155);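 note: 0% = growth of vehicle-only cultures of the same strain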; conditions: S. cerevisiae rad50 strain growth inhibition; at 1.2 µM
The panel holds about 79,000 compounds, 15% with a hit somewhere; the sample as a whole holds those more often. Calls of active or inactive are those of the source. No stated cut-off is given here; in the data, active means growth inhibition above about 70%; inactive means the rest.
Outcomes: active, inactive

> print(dat)
                                   compound  classification
1  O=C(CC(=O)n1nc(-c2ccccc2)c(N=Nc2ccccc2C(=O)O)c1-c1ccccc1)Nc1ccc(Cl)cc1        inactive
2  COC(=O)CCNc1c2ccccc2nc2cccc([N+](=O)[O-])c12          active
3  O=C(NCCCCNCCCNC(=O)c1cc(-c2ccccc2)nc2ccccc12)c1cc(-c2ccccc2)nc2ccccc12        inactive
4    S=C(N/N=C(/c1ccccc1)c1ccccn1)N1CCCCCC1        inactive
5  COc1ccc(C2c3cc4c(cc3OC(C)(O)C2C)OCO4)c(OC)c1 (stereo not given)        inactive

###

test: NCI Yeast Anticancer Drug Screen. Data for the mlh1 strain (AID 171);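 note: 0% = growth of vehicle-treated control cultures of the same strain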; settings: S. cerevisiae mlh1 strain growth inhibition; at 100.0 µM; active compounds read high
The panel holds about 79,000 compounds, 15% with a hit somewhere; the sample as a whole holds those more often.
assay_metric: growth inhibition (%)

compound	assay_metric	display_unit	test_result
CN(C)CCOc1ccc2c(c1)C/C(=C/c1ncc([N+](=O)[O-])n1C)C2=O	growth inhibition	%	62
CCOC(=O)C(NC(=O)c1ccccc1)(N1CCN(c2cc3c(cc2F)c(=O)c(C(=O)O)cn3C2CC2)CC1)C(F)(F)F (centres undefined)	growth inhibition	%	1
CC(C)=CC(=O)O[C@@H]1CC(C)(C)CC2C3=CCC4[C@]56CC[C@](O)(OC5)C(C)(C)C6CC[C@@]4(C)C3(C)CC[C@]21C(=O)O (some centres undefined)	growth inhibition	%	90
COc1ccc2nc3c([N+](=O)[O-])ccc(NCCN(C)C)c3c(NCCN(C)C)c2c1	growth inhibition	%	1
CNC1C(OC2C(OC3C(O)C(O)C(N=C(N)N)C(O)C3N=C(N)N)OC(C)C2(O)CO)OC(CO)C(O)C1O (centres undefined)	growth inhibition	%	10
CCC#CCCCOC(=O)c1cc([N+](=O)[O-])cc([N+](=O)[O-])c1	growth inhibition	%	99
Oc1ccc(NCn2c(=S)sc3ccccc32)cc1	growth inhibition	%	97
Cc1ccc(C2C(Cl)C(=O)N2n2cnc3ccccc3c2=O)cc1 (centres undefined)	growth inhibition	%	-4
CCN(CC)C(C)(C)C(=O)/C=C/c1ccccc1	growth inhibition	%	5

Each recorded value in this set is attributed to PubChem BioAssay (NCI).
